target: Human glucagon receptor (human, UniProt P47871 26-477); test: cell-based or functional assay
Where no end group is shown, it is not given here. [ ]: non-standard residue; d: D form. αMePhe(2-F) = C[C@](N)(Cc1ccccc1F)C(=O)O
Note to self: cAMP production with saturated glucagon peptide; test compound 1 nM under 10 pmol/ml/µg prt means 1 (yes), ties and anything higher get 0 (no).

Worked set:
HSQGTXTSDXX (α-Me-2F-Phe at 6; Bip(OMe) at 10; Bip(2Me) at 11) [Seq. ID. No. 21: HSQGT-(α-Me-2F-Phe)-TSD-Bip(OMe)-Bip(2Me)]	0 (no)
HAQGTFTSD[Bip(OMe)][Bip(2Me)] (not fully specified (C-terminus); printed as HAQGTFTSD-Bip(OMe)-Bip(2Me)) [Seq. ID. No. 9: HAQGTFTSD-Bip(OMe)-Bip(2Me)]	0 (no)
HAQGT[αMePhe(2-F)]TSD[Bip(OMe)][Bip(2Me)] [Seq. ID. No. 25: HAQGT-(α-Me-2F-Phe)-TSD-Bip(OMe)-Bip(2Me)]	0 (no)
HXQGTXTSDXX (Aib at 2; α-Me-2F-Phe at 6; Bip(OMe) at 10; Bip(2CF3) at 11; C-terminal amide (CONH2)) [Seq. ID. No. 32: H-Aib-QGT-(α-Me-2F-Phe)-TSD-Bip(OMe)-Bip(2CF3)]	1 (yes)

Hello, I'm reviewing records and need to know if cAMP production with saturated glucagon peptide; test compound 1 nM of HAQGT[αMePhe(2-F)]TSD[Bip(OMe)][Bip(Pyr)] [Seq. ID. No. 26: HAQGT-(α-Me-2F-Phe)-TSD-Bip(OMe)-Bip(Pyr)] is below 10 pmol/ml/µg prt. Could you check?
0 (no)

These measurements were taken from patent US20130225488A1.
